Molecular target: human GlyT1c transporter (Homo sapiens (Human))
Sequence (P48067 whole entry): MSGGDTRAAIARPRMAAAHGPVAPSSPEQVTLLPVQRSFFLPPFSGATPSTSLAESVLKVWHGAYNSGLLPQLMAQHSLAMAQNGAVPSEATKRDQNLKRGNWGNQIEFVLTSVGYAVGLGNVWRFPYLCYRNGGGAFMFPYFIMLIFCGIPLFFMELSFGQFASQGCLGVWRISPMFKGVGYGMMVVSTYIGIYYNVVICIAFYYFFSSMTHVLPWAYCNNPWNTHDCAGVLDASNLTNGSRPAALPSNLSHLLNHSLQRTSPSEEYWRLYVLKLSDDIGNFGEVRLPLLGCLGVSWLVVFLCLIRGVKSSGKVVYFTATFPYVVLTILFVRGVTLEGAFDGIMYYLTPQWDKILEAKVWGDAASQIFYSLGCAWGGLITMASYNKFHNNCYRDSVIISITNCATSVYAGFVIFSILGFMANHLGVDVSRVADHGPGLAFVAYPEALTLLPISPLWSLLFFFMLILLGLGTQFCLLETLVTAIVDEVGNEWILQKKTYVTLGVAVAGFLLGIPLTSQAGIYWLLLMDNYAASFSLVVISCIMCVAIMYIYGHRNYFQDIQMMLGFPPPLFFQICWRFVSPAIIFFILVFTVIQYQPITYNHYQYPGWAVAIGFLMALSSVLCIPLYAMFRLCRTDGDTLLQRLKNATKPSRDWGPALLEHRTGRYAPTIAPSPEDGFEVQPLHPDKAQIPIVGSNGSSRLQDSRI
Experiment: Radioligand binding assay using recombinant CHO cell membranes expressing human GlyT1
Conditions: examples 88-204, radioligand not specified by footnote, hydrochloride, read-out: radioligand binding Kiapp
Where a name gives a salt, the structure may show the parent alone.

COMPOUND	Ki
O=S(=O)(NCCOc1ccc2c(c1)[C@H](C1(c3ccc(Cl)cc3)CCC1)NCC2)c1cccnc1 [Example 141, hydrochloride]	≤ 100 nM

###

Target: human GlyT1c (Homo sapiens (Human), UniProt P48067)
Experiment: [3H]-Glycine uptake into recombinant CHO cells expressing human GlyT1
Format: cell-based
Conditions: hGlyT1c_5_CHO cells, 200 nM [3H]-glycine
Where a name gives a salt, the structure may show the parent alone.
In this section, each of the molecules is paired with its reported IC50.

MOLECULE	IC50
CCOC(=O)N1CCN(S(=O)(=O)NCCOc2ccc3c(c2)C(C2(c4ccc(Cl)cc4)CCC2)NCC3)CC1 (stereo not shown) [Example 54, hydrochloride]	≤ 10 µM
O=S(=O)(NCCOc1ccc2c(c1)C(C1(c3ccc(Cl)cc3)CCC1)NCC2)c1ccc(Cl)cc1 (stereo not shown) [Example 27, hydrochloride]	≤ 1 µM
NCCNS(=O)(=O)CCCOc1ccc2c(c1)C(C1(c3ccc(Cl)cc3)CCC1)NCC2 (stereo not shown) [Example 130, dihydrochloride]	≤ 100 µM
CCCS(=O)(=O)NCCOc1ccc2c(c1)C(C1(c3ccc(Cl)cc3OC)CCC1)NCC2 (stereo not shown) [Example 76, hydrochloride]	≤ 0.1 µM

###

Target: human GlyT1c transporter (Homo sapiens (Human))
Experiment: Radioligand binding assay using recombinant CHO cell membranes expressing human GlyT1
Conditions: examples 88-204, radioligand not specified by footnote, read-out: radioligand binding Kiapp
Structures can show the parent of a compound that is named as a salt.

COMPOUND	Ki
O=S(=O)(NCCOc1ccc2c(c1)C(C1(c3ccc(Cl)cc3)CCC1)NCC2)C1CCNC1 (stereo not shown) [Example 159, dihydrochloride]	≤ 100 nM
CCCS(=O)(=O)NCc1ccc2c(c1)C(C1(c3ccccn3)CCC1)NCC2 (stereo not shown) [Example 125, trifluoroacetate]	≤ 10000 nM
O=S(=O)(CCCOc1ccc2c(c1)C(C1(c3ccc(Cl)cc3)CCC1)NCC2)Nc1ccccc1 (stereo not shown) [Example 112, hydrochloride]	≤ 1000 nM
O=S(=O)(CCCOc1ccc2c(c1)C(C1(c3ccc(Cl)cc3)CCC1)NCC2)Nc1ccccn1 (stereo not shown) [Example 109, dihydrochloride]	≤ 1000 nM
Cn1cc(S(=O)(=O)NCc2ccc3c(c2)C(C(C)(C)c2ccc(Cl)cc2)NCC3)cn1 (stereo not shown) [Example 100, hydrochloride]	≤ 100 nM
O=S(=O)(NCCOc1ccc2c(c1)C(C1(c3ccc(Cl)cc3)CCC1)NCC2)c1cn[nH]c1 (stereo not shown) [Example 153, hydrochloride]	≤ 100 nM
O=S(=O)(NCCOc1ccc2c(c1)C(C1(c3ccc(Cl)cc3)CCC1)NCC2)C1CCNC1 (single isomer, unassigned) [Example 172, dihydrochloride]	≤ 10000 nM

###

Molecular target: human GlyT1c (Homo sapiens (Human))
Experiment: [3H]-Glycine uptake into recombinant CHO cells expressing human GlyT1
Type: cell-based
Details: hGlyT1c_5_CHO cells, 200 nM [3H]-glycine
Where a name gives a salt, the structure may show the parent alone.
In this section, each of the molecules is paired with its reported IC50.
PROPERTY NAME: IC50

MOLECULE	EXPERIMENTAL SYSTEM	ENDPOINT VALUE
CCCS(=O)(=O)NCCOc1ccc2c(c1)C(C1(c3ccc(Cl)c(N)c3)CCC1)NCC2 (stereo not shown) [Example 142, dihydrochloride]	human GlyT1c (Homo sapiens (Human))	≤ 100 nM
N#Cc1ccc(S(=O)(=O)NCCOc2ccc3c(c2)C(C2(c4ccc(Cl)cc4)CCC2)NCC3)cc1 (stereo not shown) [Example 24, hydrochloride]	human GlyT1c (Homo sapiens (Human))	≤ 1000 nM
CCCS(=O)(=O)NCCOc1ccc2c(c1)C(C(C)c1ccc(Cl)cc1)NCC2 (stereo not shown) [Example 145, hydrochloride]	human GlyT1c (Homo sapiens (Human))	≤ 100 nM
O=C(NCCOc1ccc2c(c1)C(C1(c3ccc(Cl)cc3)CCC1)NCC2)Nc1cccnc1 (stereo not shown) [Example 42, hydrochloride]	human GlyT1c (Homo sapiens (Human))	≤ 100000 nM
CCCCS(=O)(=O)NCCOc1ccc2c(c1)C(C1(c3ccc(Cl)cc3)CCC1)NCC2 (stereo not shown) [Example 16, hydrochloride]	human GlyT1c (Homo sapiens (Human))	≤ 100 nM
Cn1cc(S(=O)(=O)NCCOc2ccc3c(c2)C(C2(c4ccc(Cl)cc4)CC2)NCC3)cn1 (stereo not shown)	human GlyT1c (Homo sapiens (Human))	≤ 100 nM
O=S(=O)(NCCOc1ccc2c(c1)C(C1(c3ccc(Cl)cc3)CCC1)NCC2)c1ccc(-c2ccon2)s1 (stereo not shown) [Example 22, hydrochloride]	human GlyT1c (Homo sapiens (Human))	≤ 10000 nM

###

In this section, each of the molecules is paired with its reported pKi.
Target: human GlyT1c transporter (Homo sapiens (Human))
Experiment: Radioligand binding assay using recombinant CHO cell membranes expressing human GlyT1
Settings: examples 88-204, radioligand not specified by footnote, read-out: radioligand binding Kiapp
pKi: −log10 of the molar value. Where a name gives a salt, the structure may show the parent alone.
PROPERTY NAME: pKi

MOLECULE	ENDPOINT VALUE
CCCS(=O)(=O)Oc1ccc2c(c1)C(C1(c3cccc(F)c3)CCC1)NCC2 (stereo not drawn) [Example 120, hydrochloride]	≥ 5.00
CCCS(=O)(=O)NCCOc1ccc2c(c1)C(C1(c3ccc(Cl)cc3)CCC1)N(C(C)=O)CC2 (stereo not drawn)	≥ 5.00
O=S(=O)(NCCOc1ccc2c(c1)C(C1(c3ccc(Cl)cc3)CCC1)NCC2)C1CCCNC1 (single isomer, unassigned) [Example 192, dihydrochloride]	≥ 5.00
O=S(=O)(CCCF)NCCOc1ccc2c(c1)C(C1(c3ccccn3)CCC1)NCC2 (stereo not drawn) [Example 104, hydrochloride]	≥ 7.00
O=S(=O)(NCc1ccc2c(c1)C(C1(c3ccc(Cl)cc3)CCC1)NCC2)c1cccnc1 (stereo not drawn) [Example 108, dihydrochloride]	≥ 6.00
CN(C)CCCS(=O)(=O)NCCOc1ccc2c(c1)C(C1(c3ccc(Cl)cc3)CCC1)NCC2 (stereo not drawn)	≥ 5.00
O=S(=O)(NCCOc1ccc2c(c1)C(C1(c3ccc(Cl)cc3)CCC1)NCC2)c1ccc(CCCF)cc1 (stereo not drawn) [Example 114, hydrochloride]	≥ 6.00
Cn1cc(S(=O)(=O)NCc2ccc3c(c2)C(C2(c4ccc(Cl)cc4)CCC2)NCC3)cn1 (stereo not drawn) [Example 91, trifluoroacetate]	≥ 7.00
O=S(=O)(Nc1ccccc1Oc1ccc2c(c1)C(C1(c3ccc(Cl)cc3)CCC1)NCC2)c1cccs1 (stereo not drawn) [Example 116, hydrochloride]	≥ 6.00
O=S(=O)(CCCF)NCCOc1ccc2c(c1)C(C1(c3ccc(Cl)cc3)CCC1)NCC2 (stereo not drawn) [Example 140, hydrochloride]	≥ 7.00
O=S(=O)(NCCOc1ccc2c(c1)C(C1(c3ccc(Cl)cc3)CCC1)NCC2)C1CNC1 (stereo not drawn)	≥ 6.00
NCCNS(=O)(=O)CCCOc1ccc2c(c1)C(C1(c3ccc(Cl)cc3)CCC1)NCC2 (stereo not drawn) [Example 130, dihydrochloride]	≥ 5.00
O=S(=O)(CCCF)NCc1ccc2c(c1)C(C1(c3ccc(Cl)cc3)CCC1)NCC2 (stereo not drawn) [Example 94, hydrochloride]	≥ 7.00
NCCS(=O)(=O)NCCOc1ccc2c(c1)C(C1(c3ccc(Cl)cc3)CCC1)NCC2 (single isomer, unassigned) [Example 152, dihydrochloride]	≥ 7.00
O=S(=O)(CCCN1CCOCC1)NCCOc1ccc2c(c1)C(C1(c3ccc(Cl)cc3)CCC1)NCC2 (stereo not drawn)	≥ 4.00
O=S(=O)(NCCOc1ccc2c(c1)C(C1(c3ccc(Cl)cc3)CCC1)NCC2)C1CCNC1 (single isomer, unassigned) [Example 148, dihydrochloride]	≥ 7.00
N#Cc1ccc2c(c1)C(C1(c3ccc(Cl)cc3)CCC1)NCC2 (stereo not drawn) [Example 92, hydrochloride]	≥ 7.00
C/C=C/S(=O)(=O)NCCOc1ccc2c(c1)C(C1(c3ccc(Cl)cc3)CCC1)NCC2 (stereo not drawn) [Example 88, hydrochloride]	≥ 7.00
O=S(=O)(NCCOc1ccc2c(c1)C(C1(c3ccc(Cl)cc3)CCC1)NCC2)C1CCCNC1 (single isomer, unassigned) [Example 193, dihydrochloride]	≥ 5.00
Cn1cc(S(=O)(=O)NCCOc2ccc3c(c2)C(C2(c4ccc(Cl)cc4)CC(F)(F)C2)NCC3)cn1 (single isomer, unassigned) [Example 138]	≥ 7.00
O=S(=O)(CCN1CCCCC1)NCCOc1ccc2c(c1)C(C1(c3ccc(Cl)cc3)CCC1)NCC2 (stereo not drawn)	≥ 6.00

###

Molecular target: human GlyT1c transporter (Homo sapiens (Human))
Test: Radioligand binding assay using recombinant CHO cell membranes expressing human GlyT1
Conditions: examples 88-204, radioligand not specified by footnote, read-out: radioligand binding Kiapp
pKi: −log10 of the molar value. Structures can show the parent of a compound that is named as a salt.

MOLECULE	pKi
Nc1ncc(S(=O)(=O)NCCOc2ccc3c(c2)C(C2(c4ccc(Cl)cc4)CCC2)NCC3)s1 (stereo not shown) [Example 163, dihydrochloride]	≥ 6.00
O=S(=O)(NCCOc1ccc2c(c1)[C@@H](C1(c3ccc(Cl)cc3)CCC1)NCC2)c1cccnc1 [Example 182, hydrochloride]	≥ 5.00
O=S(=O)(NCCOc1ccc2c(c1)C(C1(c3ccc(Cl)cc3)CCC1)NCC2)C1CCNCC1 (stereo not shown) [Example 190, dihydrochloride]	≥ 5.00
CN(C)CCNS(=O)(=O)CCCOc1ccc2c(c1)C(C1(c3ccc(Cl)cc3)CCC1)NCC2 (stereo not shown) [Example 132, dihydrochloride]	≥ 5.00
CC(C)(C)CS(=O)(=O)NCCOc1ccc2c(c1)C(C1(c3ccc(Cl)cc3)CCC1)NCC2 (stereo not shown) [Example 155, hydrochloride]	≥ 7.00
CC(C)NCCS(=O)(=O)NCCOc1ccc2c(c1)C(C1(c3ccc(Cl)cc3)CCC1)NCC2 (stereo not shown) [Example 169]	≥ 6.00
Nc1cccc(S(=O)(=O)NCCOc2ccc3c(c2)C(C2(c4ccc(Cl)cc4)CCC2)NCC3)c1 (stereo not shown) [Example 157, dihydrochloride]	≥ 7.00
